# TARGET_OR_SYSTEM: T1, 4H4001-AA
# T1 chain: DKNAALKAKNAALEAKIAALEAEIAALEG
# EXPERIMENTAL_PROTOCOL: two-hybrid library CCmax;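 also: natural log of median RNA to DNA barcode read ratio; higher means stronger binding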
# DETAILS: mean of both orientations
OBSERVED_PROPERTY: interaction score

{"columns": ["BINDER", "OBSERVED_PROPERTY", "MEASURED_VALUE"],
 "data": [
  ["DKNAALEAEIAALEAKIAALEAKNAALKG [4H3112-AA]", "interaction score", -1.09],
  ["DKIAALEAKNAALEAEIAALKAEIAALKG [4H2442-AA]", "interaction score", -2.06]
]}

[I] DKNAALEAKIAALEAENAALKAEIAALKG [4H3354-AA]
[II] DKNAALKAKIAALEAEIAALKAKNAALEG [4H3855-AA]
Inquiry: // compare: I vs II , metric interaction score, want the smaller Answer by quoting the chosen item's label.
Reply text: I
(I: -1.64, II: -0.86)
